Experimental System: T1, Native human IL-18 (human, UniProt Q14116 37-193)
T1 sequence: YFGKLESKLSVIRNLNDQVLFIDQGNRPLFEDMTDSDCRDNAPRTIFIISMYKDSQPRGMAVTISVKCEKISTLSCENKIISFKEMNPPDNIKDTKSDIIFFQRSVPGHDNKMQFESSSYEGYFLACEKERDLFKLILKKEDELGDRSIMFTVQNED
Experiment Notes: cell-based or functional assay
Result Type: IC50, inhibition of IFN-γ release, human whole blood, LPS/IL-12 (native IL-18) (nM)
Hi! Could you send only the number? It should be in nM, unit omitted.

In: Form field: reported IC50, inhibition of IFN-γ release, human whole blood, LPS/IL-12 (native IL-18) of MOR9464_N30T (antibody, human IgG1, lambda, L234A L235A, V domains shown) VH: EVQLVQSGAEVKKPGSSVKVSCKASGGTFTSYAISWVRQAPGQGLEWMGNIIPMTGQTYYAQKFQGRVTITADESTSTAYMELSSLRSEDTAVYYCARAAYHPLVFDNWGQGTLVTVSS VL: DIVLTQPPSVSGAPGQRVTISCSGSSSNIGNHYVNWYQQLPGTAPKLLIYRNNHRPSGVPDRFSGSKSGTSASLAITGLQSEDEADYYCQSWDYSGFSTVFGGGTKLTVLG
Out: 20.8

In: And the next one, MOR09464 (antibody, human IgG1, lambda, L234A L235A, V domains shown, also called MOR9464) VH: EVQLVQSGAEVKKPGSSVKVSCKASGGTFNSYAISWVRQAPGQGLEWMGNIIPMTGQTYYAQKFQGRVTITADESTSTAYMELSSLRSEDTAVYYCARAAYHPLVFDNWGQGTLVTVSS VL: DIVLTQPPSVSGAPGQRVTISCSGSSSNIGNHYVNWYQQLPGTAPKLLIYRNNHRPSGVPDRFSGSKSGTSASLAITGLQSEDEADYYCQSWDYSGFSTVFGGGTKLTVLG ?
Out: 9.8

In: And what about the binder MOR09465 (antibody, human IgG1, lambda, L234A L235A, V domains shown, also called MOR9465) VH: EVQLVQSGAEVKKPGSSVKVSCKASGGTFNSYAISWVRQAPGQGLEWMGNIIPHYGFAYYAQKFQGRVTITADESTSTAYMELSSLRSEDTAVYYCARAAYHPLVFDNWGQGTLVTVSS VL: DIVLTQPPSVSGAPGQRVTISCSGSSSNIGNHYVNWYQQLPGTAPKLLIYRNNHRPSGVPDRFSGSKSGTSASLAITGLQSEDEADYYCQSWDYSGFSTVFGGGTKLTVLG ?
Out: 19.4

Each recorded value in this set is attributed to patent US20140112915A1.
